Catalogue of pIC50 values
Target: HLA-DR DRB5*0101 (DR51) (Homo sapiens, UniProt P01903+Q30154)
Assay: biochemical
Assay type: binding
Conditions: DRB5 *0101
pIC50: −log10 of the molar value.
MEASURED_PROPERTY: pIC50

>>> value_measured("CC(C)C[C@H](NC(=O)[C@H](CCC(N)=O)NC(=O)[C@H](C)NC(=O)[C@H](CC(N)=O)NC(=O)[C@H](CCCCN)NC(=O)[C@@H](NC(=O)[C@H](CCCCN)NC(=O)[C@H](CC(N)=O)NC(=O)CN)C(C)C)C(=O)N[C@@H](C)C(=O)NCC(=O)N[C@@H](C)C(=O)N[C@@H](CCCCN)C(=O)NCC(=O)N[C@H](C(=O)O)C(C)C")
5.91
>>> value_measured("CC[C@H](C)[C@H](NC(=O)CNC(=O)[C@H](Cc1ccc(O)cc1)NC(=O)[C@H](CC(C)C)NC(=O)[C@H](CO)NC(=O)[C@H](CC(C)C)NC(=O)[C@H](CC(C)C)NC(=O)[C@H](CO)NC(=O)[C@H](CC(C)C)NC(=O)[C@H](CCC(=O)O)NC(=O)[C@H](CO)NC(=O)[C@H](CC(C)C)NC(=O)[C@H](CCC(=O)O)NC(=O)[C@H](CCCNC(=N)N)NC(=O)[C@@H](N)CC(C)C)C(=O)O")
5.29

====

Target: HLA-DR DRB4*0101 (DR53) (Homo sapiens, UniProt P01903+P13762, G164S)
Experiment: biochemical
Type: binding
MEASURED_PROPERTY: IC50 (nM)

>>> value_measured("CC(C)C[C@H](N)C(=O)N[C@@H](CCC(=O)O)C(=O)N1CCC[C@H]1C(=O)N[C@@H](Cc1c[nH]c2ccccc12)C(=O)N[C@@H](CC(N)=O)C(=O)N[C@@H](Cc1c[nH]cn1)C(=O)N1CCC[C@H]1C(=O)NCC(=O)N[C@@H](CO)C(=O)N[C@@H](CCC(N)=O)C(=O)N1CCC[C@H]1C(=O)N[C@@H](CCCCN)C(=O)N[C@H](C(=O)N[C@@H](C)C(=O)N[C@@H](CS)C(=O)N[C@H](C(=O)O)[C@@H](C)O)[C@@H](C)O")
92
>>> value_measured("CC[C@H](C)[C@H](NC(=O)[C@H](CCCCN)NC(=O)[C@H](CC(N)=O)NC(=O)[C@@H](NC(=O)[C@@H](NC(=O)[C@H](CC(C)C)NC(=O)[C@@H](NC(=O)[C@H](CO)NC(=O)[C@H](CC(C)C)NC(=O)[C@H](C)NC(=O)[C@H](CCC(=O)O)NC(=O)CN)[C@@H](C)O)C(C)C)C(C)C)C(=O)N[C@@H](CCCNC(=N)N)C(=O)NCC(=O)N[C@H](C(=O)O)[C@@H](C)O")
1510
>>> value_measured("CC[C@H](C)[C@H](NC(=O)[C@H](Cc1ccc(O)cc1)NC(=O)[C@@H]1CCCN1)C(=O)N[C@@H](CC(C)C)C(=O)N[C@@H](CC(C)C)C(=O)N[C@H](C(=O)N[C@@H](CO)C(=O)N[C@@H](CO)C(=O)N[C@@H](CCCCN)C(=O)N[C@H](C(=O)N[C@@H](CO)C(=O)N[C@H](C(=O)N[C@H](C(=O)N[C@@H](CCCCN)C(=O)N[C@@H](CC(=O)O)C(=O)O)C(C)C)[C@@H](C)O)C(C)C)C(C)C")
107

====

Target: HLA-DR DRB1*0401 (DR4) (Homo sapiens, UniProt P01903+P01911, A100K/A169T/F76Y/I96L/K127E/L162R/M171V/N62H/P40V/Q125Y/R42H/S133A/S149N/S66Y/V115G/V209L/W38E)
Experiment: biochemical
Format: binding
Details: DRB1 *0401
No end group written: not given here.
Catalogue of log10 of IC50 values
MEASURED_PROPERTY: log10 of IC50 (log10 of the value in nM)

>>> value_measured("AALKATAAAAAAA")
2.90
>>> value_measured("EQTTTSITSLYQLEN")
2.23
>>> value_measured("TEGRCLHYTVDKSKPK")
2.30
>>> value_measured("VLDLYPEPTDLYCYE")
2.31
>>> value_measured("RSSNTQTQKLLWQLN")
3.33
>>> value_measured("HIEFTPTRTDTYACRV")
4.48
>>> value_measured("YGRILHYLKAKEDSH")
3.37

====

Molecular target: HLA-DR DRB1*0802 (DR8) (Homo sapiens, UniProt P01903+P01911, A100R/A103L/A169T/F76Y/H45Y/I96F/K41T/L162R/M171V/P40S/Q125H/Q178H/Q39Y/Q99D/R218S/R42G/S66Y/V115G/W38E)
Assay: biochemical
Assay type: binding
MEASURED_PROPERTY: IC50 (µM)

>>> value_measured("CC[C@H](C)[C@H](NC(=O)CNC(=O)[C@H](CC(C)C)NC(=O)CNC(=O)[C@H](CCCCN)NC(=O)[C@@H](NC(=O)[C@@H](NC(=O)[C@H](Cc1ccccc1)NC(=O)[C@H](CS)NC(=O)[C@@H](NC(=O)[C@@H](N)CCC(N)=O)C(C)C)[C@@H](C)CC)[C@@H](C)O)C(=O)N[C@@H](CO)C(=O)N[C@@H](Cc1ccc(O)cc1)C(=O)NCC(=O)N[C@@H](CCCNC(=N)N)C(=O)O")
0.041
>>> value_measured("CSCC[C@H](NC(=O)[C@@H](NC(=O)[C@H](CCCCN)NC(=O)[C@@H](NC(=O)[C@H](C)NC(=O)[C@H](CC(=O)O)NC(=O)[C@@H](N)[C@@H](C)O)C(C)C)C(C)C)C(=O)N[C@@H](CC(=O)O)C(=O)N[C@@H](CC(C)C)C(=O)N1CCC[C@H]1C(=O)N[C@H](C(=O)N[C@@H](CCC(N)=O)C(=O)N[C@@H](CCC(=O)O)C(=O)N1CCC[C@H]1C(=O)N[C@@H](C)C(=O)O)[C@@H](C)O")
20.9
>>> value_measured("CC[C@H](C)[C@H](NC(=O)[C@@H](N)CC(C)C)C(=O)N[C@@H](CCSC)C(=O)N[C@@H](Cc1ccc(O)cc1)C(=O)N[C@@H](CO)C(=O)N[C@@H](C)C(=O)N[C@@H](Cc1c[nH]cn1)C(=O)N[C@@H](CC(=O)O)C(=O)N[C@H](C(=O)N[C@H](C(=O)N[C@H](C(=O)N[C@@H](CO)C(=O)NCC(=O)N[C@@H](CC(C)C)C(=O)N[C@@H](CCC(N)=O)C(=O)O)C(C)C)[C@@H](C)O)[C@@H](C)O")
24.8
>>> value_measured("CC(C)C[C@H](NC(=O)CNC(=O)[C@H](CC(N)=O)NC(=O)[C@@H](N)Cc1ccc(O)cc1)C(=O)N[C@@H](CC(C)C)C(=O)N1CCC[C@H]1C(=O)N1CCC[C@H]1C(=O)N[C@@H](Cc1ccc(O)cc1)C(=O)N[C@@H](C)C(=O)N[C@@H](CO)C(=O)N[C@@H](CS)C(=O)N[C@@H](Cc1c[nH]cn1)C(=O)N[C@@H](CC(C)C)C(=O)N[C@H](C(=O)N[C@@H](CCC(=O)O)C(=O)O)[C@@H](C)O")
14

====

Catalogue of pIC50 values
Target: HLA-DR DRB1*0901 (DR9) (Homo sapiens, UniProt P01903+P01911, A100R/A103E/D57H/D86V/F55Y/F60I/F76Y/I96F/K127E/L162R/M171V/P40D/Q125H/Q99R/R33Q/R42F/S133A/S66N/T210M/V115G/W38K/Y107V/Y59G/Y89S)
Experiment: biochemical
Format: binding
Details: DRB1 *0901
pIC50: −log10 of the molar value.
MEASURED_PROPERTY: pIC50

>>> value_measured("CC[C@H](C)[C@H](N)C(=O)N[C@@H](CC(C)C)C(=O)N[C@@H](CC(C)C)C(=O)N[C@@H](Cc1c[nH]c2ccccc12)C(=O)N[C@@H](CCC(N)=O)C(=O)N1CCC[C@H]1C(=O)N[C@H](C(=O)N1CCC[C@H]1C(=O)N[C@H](C(=O)N[C@@H](Cc1c[nH]cn1)C(=O)N[C@H](C(=O)N[C@H](C(=O)N1CCC[C@H]1C(=O)N[C@@H](CC(C)C)C(=O)N[C@@H](CO)C(=O)O)C(C)C)[C@@H](C)O)C(C)C)[C@@H](C)CC")
6.88
>>> value_measured("CSCC[C@H](NC(=O)[C@H](CC(C)C)NC(=O)[C@@H]1CCCN1C(=O)[C@@H](NC(=O)[C@@H](N)CS)[C@@H](C)O)C(=O)N[C@@H](Cc1ccc(O)cc1)C(=O)N[C@@H](CO)C(=O)N[C@@H](CC(C)C)C(=O)N[C@H](C(=O)N[C@@H](Cc1c[nH]cn1)C(=O)N[C@@H](CC(N)=O)C(=O)N[C@@H](CC(C)C)C(=O)N[C@H](C(=O)N[C@@H](CCCCN)C(=O)N[C@@H](CCC(=O)O)C(=O)O)[C@@H](C)O)C(C)C")
6.60
>>> value_measured("CSCC[C@H](NC(=O)[C@H](CC(=O)O)NC(=O)[C@H](Cc1ccc(O)cc1)NC(=O)[C@H](CC(C)C)NC(=O)[C@@H]1CCCN1C(=O)[C@H](Cc1c[nH]cn1)NC(=O)[C@@H]1CCCN1C(=O)[C@H](Cc1ccccc1)NC(=O)[C@H](CO)NC(=O)[C@H](Cc1c[nH]cn1)NC(=O)[C@H](CO)NC(=O)[C@@H](NC(=O)[C@H](CCC(N)=O)NC(=O)[C@H](Cc1ccccc1)NC(=O)[C@@H](N)C(C)C)C(C)C)C(=O)O")
7.77

meta.source: patent US20060079453A1
